All figures here come from ChEMBL document CHEMBL4513146.

System: Klebsiella pneumoniae
Settings: Concentration 32 ug.mL-1;; ASSAY_TEST Inhibition of Bacterial Growth; detection method Absorption (OD600); MEDIA CAMHB; plate type 384well; NBS; CORNING #3640; time 18 hr
Description: Antibacterial activity against Klebsiella pneumoniae MDR ATCC 70063 (CO-ADD:GN_003); MIC in CAMBH media using NBS plates, by OD(600)
Entries with a potency or affinity are not part of this list.
Known Inhibition of a selection of compounds

[
  {
    "COMPOUND": "CCC(Sc1nnc2c(=O)n(-c3ccc(C)c(C)c3)ccn12)C(=O)Nc1cc(OC)ccc1OC (centres undefined)",
    "STUDY SYSTEM": "Klebsiella pneumoniae",
    "Inhibition [%]": 5.57
  },
  {
    "COMPOUND": "COc1ccc(NC(=O)Cn2nc3c(N4CCCC(C)C4)nccn3c2=O)cc1OC (centres undefined)",
    "STUDY SYSTEM": "Klebsiella pneumoniae",
    "Inhibition [%]": -1.27
  },
  {
    "COMPOUND": "COc1cc(NC(=O)C(C)Sc2nnc3c(=O)n(-c4ccc(F)cc4)ccn23)cc(OC)c1 (centres undefined)",
    "STUDY SYSTEM": "Klebsiella pneumoniae",
    "Inhibition [%]": 6.23
  },
  {
    "COMPOUND": "O=C(Cn1nc2c(Sc3cccc(F)c3)nccn2c1=O)Nc1cccc(Br)c1",
    "STUDY SYSTEM": "Klebsiella pneumoniae",
    "Inhibition [%]": 7.1
  },
  {
    "COMPOUND": "COc1cc(NC(=O)Cn2nc3ccc(SC4CCCCC4)nn3c2=O)cc(OC)c1",
    "STUDY SYSTEM": "Klebsiella pneumoniae",
    "Inhibition [%]": 6.28
  },
  {
    "COMPOUND": "COC(=O)c1cccc(NC(=O)Cn2nc3c(N4CCC(C)CC4)nccn3c2=O)c1",
    "STUDY SYSTEM": "Klebsiella pneumoniae",
    "Inhibition [%]": 5.33
  },
  {
    "COMPOUND": "Cc1ccc(C)c(C(=O)CSc2nnc3c(=O)n(-c4ccc(F)c(F)c4)ccn23)c1",
    "STUDY SYSTEM": "Klebsiella pneumoniae",
    "Inhibition [%]": 16.06
  },
  {
    "COMPOUND": "Cc1ccc(NC(=O)CSc2nnc3c4cc(-c5ccccc5)nn4ccn23)c(C)c1",
    "STUDY SYSTEM": "Klebsiella pneumoniae",
    "Inhibition [%]": -1.1
  },
  {
    "COMPOUND": "Cc1cccc(Oc2nc3ccccc3n3c(=O)n(CC(=O)Nc4ccc5c(c4)OCCO5)nc23)c1C",
    "STUDY SYSTEM": "Klebsiella pneumoniae",
    "Inhibition [%]": 14.16
  }
]

---

Tested on: Candida albicans
Settings: Concentration 32 ug.mL-1; ASSAY_TEST Inhibition of Fungal Growth; detection method Absorption (OD530)
Description: Antifungal activity against Candida albicans ATCC 90028 (CO-ADD:FG_001); MIC in YNB media using NBS plates, by OD630
Results with a measured potency or affinity are listed apart.
Below: a set of entries, each annotated with reported Inhibition.

[
  {
    "COMPOUND": "COc1ccc(NC(=O)Cn2nc3ccc(SCc4ccc(Cl)cc4)nn3c2=O)cc1",
    "Inhibition, %": 48.76
  },
  {
    "COMPOUND": "COc1cc(NC(=O)Cn2nc3ccc(-c4ccc(C)c(C)c4)nn3c2=O)cc(OC)c1",
    "Inhibition, %": 14.91
  },
  {
    "COMPOUND": "COc1cccc(-c2noc(Cn3nc4ccc(-c5ccc(C)c(C)c5)nn4c3=O)n2)c1OC",
    "Inhibition, %": -0.69
  },
  {
    "COMPOUND": "Cc1ccc(NC(=O)Cn2nc3c(Sc4cccc(F)c4)nccn3c2=O)cc1F",
    "Inhibition, %": 0.17
  },
  {
    "COMPOUND": "COc1ccccc1N1CCN(C(=O)Cn2nc3c(Sc4cccc(C)c4)nccn3c2=O)CC1",
    "Inhibition, %": 2.52
  },
  {
    "COMPOUND": "Cc1ccc(Sc2nccn3c(=O)n(CC(=O)Nc4cccc(Cl)c4)nc23)c(C)c1",
    "Inhibition, %": 4.74
  },
  {
    "COMPOUND": "Cc1ccc(-c2cc3c4nn(CC(=O)N5CCN(c6ccc(F)cc6)CC5)c(=O)n4ccn3n2)cc1C",
    "Inhibition, %": 1.65
  },
  {
    "COMPOUND": "Cc1ccc(-n2ccn3c(SCC(=O)Nc4ccc5c(c4)OCCO5)nnc3c2=O)cc1C",
    "Inhibition, %": 0.14
  },
  {
    "COMPOUND": "CCC(Sc1nnc2c(=O)n(-c3cccc(OC)c3)ccn12)C(=O)Nc1ccccc1C (stereo not given)",
    "Inhibition, %": 0.82
  },
  {
    "COMPOUND": "COC(=O)c1ccc(CN(c2ccc(Cl)cc2)S(=O)(=O)c2ccc3nncn3c2)o1",
    "Inhibition, %": -1.37
  },
  {
    "COMPOUND": "O=C(Cn1nc2nc(Nc3ccc(F)cc3)ccn2c1=O)NCC1CCCO1 (stereo not given)",
    "Inhibition, %": 1.89
  },
  {
    "COMPOUND": "CCOc1ccc(NC(=O)Cn2nc3c4cc(-c5ccc(C)c(C)c5)nn4ccn3c2=O)cc1",
    "Inhibition, %": 0.04
  },
  {
    "COMPOUND": "O=c1n(Cc2cccc(C(F)(F)F)c2)nc2c(S(=O)(=O)N3CCCCCC3)cccn12",
    "Inhibition, %": 2.16
  },
  {
    "COMPOUND": "Cc1ccc(-n2ccn3c(=O)n(Cc4cccc(F)c4)nc3c2=O)cc1C",
    "Inhibition, %": 0.74
  },
  {
    "COMPOUND": "COc1cccc(CNC(=O)CSc2nnc3c(=O)n(-c4ccc(F)cc4)ccn23)c1OC",
    "Inhibition, %": 2.96
  },
  {
    "COMPOUND": "Cc1ccc(-c2nnc3c(=O)n(CC(=O)Nc4cc(C)cc(C)c4)c4ccccc4n23)cc1",
    "Inhibition, %": -1.05
  },
  {
    "COMPOUND": "CC(C)c1nnc2c(SCC(=O)Nc3ccc(F)cc3F)nc3ccccc3n12",
    "Inhibition, %": -0.24
  },
  {
    "COMPOUND": "O=C(Cn1nc2c(SC3CCCCC3)nccn2c1=O)Nc1cccc(Br)c1",
    "Inhibition, %": 26.25
  },
  {
    "COMPOUND": "Cn1c(=O)c2ccc(C(=O)NC3CCCC3)cc2n2c(SCC(=O)Nc3cc(F)ccc3F)nnc12",
    "Inhibition, %": 0.81
  },
  {
    "COMPOUND": "O=c1c2nn(Cc3cccc([N+](=O)[O-])c3)c(=O)n2ccn1-c1ccccc1",
    "Inhibition, %": 0.04
  }
]
